Values from PubChem BioAssay (NCATS)

System: DFO2036
Test: qHTS profiling for inhibitors of Plasmodium falciparum proliferation (AID 504749); further: nearly all actives have a fitted effect of over 60% in size
Settings: P. falciparum in erythrocytes, SYBR Green DNA, 72 h; series mostly up to 12.8 µM
Experimental: NIH National Institute of Allergy and Infectious Diseases [NIAID] NIH Chemical Genomics Center [NCGC] […] Because mature erythrocytes lack DNA, only Plasmodium-derived DNA is detected. NCGC Assay Protocol Summary: The SYBR Green viability assay was adapted from a method described previously (Plouffe et al., 2008). […] The following morning, fluorescence intensity at 485(14) nm excitation and 535(25) nm emission wavelengths was measured on an EnVision (Perkin Elmer) plate reader. […]
Records with an inconclusive call do not appear. Active and inactive are the calls of the source. The call rests on the fitted dose curve; in most records, active means well fitted inhibition curve with a large enough effect; inconclusive means small, poorly fitted or top-dose-only effect; inactive means flat fitted curve, though single readings scatter.
Log the outcome using a class from true (1) = active, false (0) = inactive

Assay outcome for CC(C)(C)NC(=O)[C@@H]1CC[C@@H]2[C@@H]3CC[C@@H]4NC(=O)C=C[C@@]4(C)[C@H]3CC[C@]21C : what was it?
false (0)

Please state the recorded outcome for this compound: CCC(C)C(=O)OC1CCC=C2C=CC(C)C(CCC3CC(O)CC(=O)O3)[C@@H]21 (some centres not stated)
false (0)

Which outcome did this test record for the compound C[C@@]12C=CC(=O)C=C1CCC1C3CC(O)[C@@](O)(C(=O)CO)[C@]3(C)CC(O)[C@]12F (some centres not stated) ?
false (0)

Please let me know the test result on file for CC(C)=CCC[C@](C)(O)C1CC=C(C)CC1 (some centres not stated) .
false (0)

Please state the recorded outcome for this compound: C[C@]12CCC(=O)C=C1CCC1C2C(=O)C[C@]2(C)C1CC[C@]2(O)C(=O)CO (some centres not stated)
false (0)

Could you check what this test reported for CC1=C(C(=O)O)N2C(=O)[C@@H](NC(=O)[C@@H](N)c3ccc(O)cc3)[C@@H]2SC1 ?
false (0)

Recorded call for CC(=O)[C@@H]1CC[C@@H]2[C@@H]3C[C@H](C)C4=CC(=O)CC[C@@]4(C)[C@H]3[C@H](O)C[C@]21C ?
false (0)

Recorded call for O=C(NC[C@@H](O)CO)c1c(I)c(C(=O)NC[C@@H](O)CO)c(I)c(N(CCO)C(=O)CO)c1I ?
false (0)

Tell me the recorded outcome of this test for C=Cc1c(C)c2cc3nc(cc4[nH]c(cc5nc(cc1[nH]2)C(C)=C5CCC(=O)O)c(CCC(=O)OC)c4C)[C@@]1(C)C3=CC=C(C(=O)OC)[C@H]1C(=O)OC (tested in a mixture with another compound) .
true (1)

Record lookup: outcome of this test for O=C(O)[C@@H]1CCCN1 ?
false (0)

Please share the test call associated with CC1(C)O[C@@H]2C[C@H]3[C@H]4C[C@H](F)C5=CC(=O)CC[C@]5(C)[C@@H]4[C@H](O)C[C@]3(C)[C@]2(C(=O)CO)O1 .
false (0)

Short answer needed: outcome of this test for C[C@@H]1C[C@H]2[C@@H]3C[C@H](F)C4=CC(=O)C=C[C@@]4(C)[C@]3(F)[C@H](O)C[C@]2(C)[C@@]1(O)C(=O)CO ?
false (0)

For CCN[C@@H]1CN(CCCOC)S(=O)(=O)c2sc(S(N)(=O)=O)cc21 , what call appears in the results of this test?
false (0)

Query: recorded result category for C[C@H]1CS(=O)(=O)CCN1/N=C\c1ccc([N+](=O)[O-])o1 in this test
false (0)

What call does the record list for CNC1C(OC2C(O[C@@H]3C(O)C(O)[C@@H](N=C(N)N)C(O)C3N=C(N)N)OC(C)[C@@]2(O)CO)OC(CO)C(O)C1O (some centres not stated) ?
false (0)

Give the logged outcome of this assay for the following compound: CN1CC(=O)N=C1N
false (0)

Per the assay record, what outcome was assigned to c1ccc2c(c1)CCC[C@@H]2C1=NCCN1 ?
false (0)

====

system: CP315; assay: qHTS profiling for inhibitors of Plasmodium falciparum proliferation (AID 504749); further: nearly all actives have a fitted effect of over 60% in size; details: P. falciparum in erythrocytes, SYBR Green DNA, 72 h; series mostly up to 12.8 µM
Records with an inconclusive call do not appear. Calls of active or inactive are those of the source. Calls come from the whole dose curve; as a rule, active = well fitted inhibition curve with a large enough effect; inconclusive = small, poorly fitted or top-dose-only effect; inactive = flat fitted curve, though single readings scatter.
Hi! Could you answer with just one of these? yes (active), no (inactive)

Which outcome was entered for the compound COc1cc(N)c(Cl)cc1C(=O)N[C@H]1CCN(CCCOc2ccc(F)cc2)C[C@H]1OC in this test?
no

So what was the verdict on CCC(=O)O[C@@]1(C(=O)SCF)[C@@H](C)C[C@H]2[C@@H]3C[C@@H](F)C4=CC(=O)C=C[C@@]4(C)[C@]3(F)[C@@H](O)C[C@]21C in this test?
no

Entry C/C1=C2N=C(/C=C3N=C(/C(C)=C4\[N-]C(C)(C5N=C1C(C)(CCC(=O)NCC(C)OP(=O)([O-])O[C@H]1C(O)C(n6cnc7cc(C)c(C)cc76)O[C@@H]1CO)C5CC(N)=O)C(C)(CC(N)=O)C4CCC(N)=O)C(C)(CC(N)=O)C\3CCC(N)=O)C(C)(C)C/2CCC(N)=O.[CH2-]C1OC(n2cnc3c(N)ncnc32)C(O)C1O.[Co] (stereo partly specified) : call = ?
no

Test call, this compound: C[C@@]12CC[C@H]3[C@@H](CCC4=CC(=O)CC[C@]43C)[C@H]1CC[C@H]2C(=O)CO
no

// return assay outcome for CC1(C)S[C@@H]2[C@H](NC(=O)[C@@H](N)c3ccccc3)C(=O)N2[C@H]1C(=O)O[C@H]1OC(=O)c2ccccc21
no

Lab log entry: CCC(C)C(=O)OC1CCC=C2C=CC(C)C(CCC3CC(O)CC(=O)O3)[C@@H]21 (stereo partly specified) — outcome as called in the assay?
no

Outcome? CC[C@H]1NC(=O)c2cc(S(N)(=O)=O)c(Cl)cc2N1
no

# lookup: test call for O=C1O[C@@H]([C@@H](O)CO)[C@@H](O)[C@H]1O
no

Status in this test for NC(C(=O)O)[C@@H]1CC(Cl)=NO1 (stereo partly specified) ?
yes

I would be grateful if you could indicate the recorded call for CN1CCC[C@@H](CC2c3ccccc3Sc3ccccc32)C1 .
no

State the result this test recorded for CCOC(=O)O[C@@H](C)OC(=O)[C@@H]1N2C(=O)[C@@H](NC(=O)[C@@H](N)c3ccccc3)[C@H]2SC1(C)C .
no

Just curious, what result did NS(=O)(=O)c1cc2c(cc1Cl)N[C@@H](C(Cl)Cl)NS2(=O)=O get here?
no

Hey, what did the test say about CCOC(=O)[C@H](CCc1ccccc1)N[C@@H](C)C(=O)N1[C@H](C(=O)O)C[C@H]2CCC[C@@H]21 ?
no

Hi, sorry to bother you, what did the test record for C[C@@H]1C[C@H]2[C@@H]3C[C@H](F)C4=CC(=O)C=C[C@@]4(C)[C@]3(F)[C@H](O)C[C@]2(C)[C@@]1(O)C(=O)CO ?
no

# fetch the recorded call for CNC1C(OC2C(O[C@@H]3C(O)C(O)[C@@H](N=C(N)N)C(O)C3N=C(N)N)OC(C)[C@@]2(O)CO)OC(CO)C(O)C1O (stereo partly specified) here
no

Each compound tested received a call. Report the one for O=C(O)COCCN1CCN([C@@H](c2ccccc2)c2ccc(Cl)cc2)CC1 .
no

Short answer needed: outcome of this test for COC1OC(CO)C(OC2OC(C(=O)O)C(OC3OC(COS(=O)(=O)O)C(OC4OC(C(=O)O)C(OC5OC(CO)C(OC6OC(C(=O)O)C(OC7OC(COS(=O)(=O)O)C(OC8OC(C(=O)O)=C[C@H](O)C8OS(=O)(=O)O)C(O)C7NC(C)=O)[C@@H](O)C6O)C(O)C5NC(C)=O)[C@@H](O)C4O)C(O)C3NC(C)=O)[C@@H](O)C2O)C(O)C1NC(C)=O (stereo partly specified) ?
no

Kindly provide the recorded test outcome for the following compound: CC(=O)N[C@@H]1C(O)OC(CO)C(O)C1O (stereo partly specified)
no

What did this assay record as the result for CC[C@H](Cc1c(I)cc(I)c(N)c1I)C(=O)O ?
no

Lab log entry: CC=C(/C(=C/C)c1ccc(O)cc1)c1ccc(O)cc1 — outcome as called in the assay?
no

Hello, I am checking results. What call was entered for C[C@]1(c2ccccc2)OC(C(=O)O)=CC1=O ?
no

Any idea what this test logged for CCC(=O)[C@@]1(C)[C@H](C)C[C@@H]2[C@@H]3CCC4=CC(=O)C=C[C@@]4(C)[C@H]3[C@H](O)C[C@]21C ?
no

Hi, do you know how COc1cc2nc(N3CCN(C(=O)[C@@H]4CCCO4)CC3)nc(N)c2cc1OC came out in this test?
no

Which outcome was assigned to CO[C@H]1[C@H](O[C@H]2O[C@@H](C)[C@@H](O[C@@H]3C[C@](C)(O)[C@H](O)[C@H](C)O3)[C@@H](N(C)C)[C@@H]2O)[C@@H](CC=O)C[C@@H](C)[C@@H](O[C@H]2CC[C@H](N(C)C)[C@H](C)O2)/C=C\C=C/C[C@@H](C)OC(=O)C[C@H]1O in this test?
no

Which outcome did this test record for the compound CC(C)(C)NC[C@H](O)COc1cccc2c1CCC(=O)N2 ?
no

Each compound tested received a call. Report the one for CC(C)NC[C@H]1CCc2cc(CO)c([N+](=O)[O-])cc2N1 .
no

Give the logged outcome of this assay for the following compound: Nc1nc2ncc(CNc3ccc(C(=O)NC(CCC(=O)O)C(=O)O)cc3)nc2c(=O)[nH]1 (stereo unspecified)
no

Tell me the recorded outcome of this test for OCC1OC([S-])[C@H](O)C(O)C1O.[Au+] (stereo partly specified) .
no

Hi team, can someone confirm the assay call for CC[C@](C)(CN(C)C)OC(=O)c1ccccc1 ?
no

Hey, what did the test say about C=CCN1C(=CCO)[C@H]2C[C@H]3[C@@H]1CC[C@@]31c3ccccc3N3C=C4[C@@H]5N(/C=C/2[C@H]31)c1ccccc1[C@]51CC[C@H]2[C@H]1C[C@@H]4/C(=C/CO)N2CC=C ?
no

Tell me the recorded outcome of this test for CN1CCO[C@H](c2ccccc2)c2ccccc2C1 .
no
